# STUDY_TARGET: PI3K (Homo sapiens)
# PROTOCOL_DETAILS: Fluorescence polarization assay for PI3K
# Format: biochemical
# PROTOCOL_CONDITIONS: PI3Kα; read-out: PI3Kα IC50
PROPERTY_MEASURED: IC50 (nM)

I. CNC(=O)Nc1ccc(-c2nc(N3CCOCC3)c3cnn(C4CCNCC4)c3n2)cc1 [Compound 584]
II. Clc1ccc(CN2CCC(n3ncc4c(N5CCOCC5)nc(-c5ccc6[nH]ccc6c5)nc43)CC2)cn1
III. C=CC(=O)Nc1ccc(-c2nc(N3CCOCC3)c3cnn(C4CCN(C(=O)C(C)C)CC4)c3n2)cc1
IV. Cn1ccc2cc(-c3nc(N4CCOCC4)c4cnn(C5CCN(Cc6ccccc6)CC5)c4n3)ccc21
V. COC(=O)Nc1cccc(-c2nc(N3CCOCC3)c3cnn(C4CCN(Cc5ccccc5)CC4)c3n2)c1
Asked: Order by IC50, ascending. Provide your answer as the labels ordered per the instruction.
Given back: I, II, III, IV, V

* * *

# STUDY_TARGET: PI3K (Homo sapiens, UniProt P42336)
# Sequence (P42336 whole entry): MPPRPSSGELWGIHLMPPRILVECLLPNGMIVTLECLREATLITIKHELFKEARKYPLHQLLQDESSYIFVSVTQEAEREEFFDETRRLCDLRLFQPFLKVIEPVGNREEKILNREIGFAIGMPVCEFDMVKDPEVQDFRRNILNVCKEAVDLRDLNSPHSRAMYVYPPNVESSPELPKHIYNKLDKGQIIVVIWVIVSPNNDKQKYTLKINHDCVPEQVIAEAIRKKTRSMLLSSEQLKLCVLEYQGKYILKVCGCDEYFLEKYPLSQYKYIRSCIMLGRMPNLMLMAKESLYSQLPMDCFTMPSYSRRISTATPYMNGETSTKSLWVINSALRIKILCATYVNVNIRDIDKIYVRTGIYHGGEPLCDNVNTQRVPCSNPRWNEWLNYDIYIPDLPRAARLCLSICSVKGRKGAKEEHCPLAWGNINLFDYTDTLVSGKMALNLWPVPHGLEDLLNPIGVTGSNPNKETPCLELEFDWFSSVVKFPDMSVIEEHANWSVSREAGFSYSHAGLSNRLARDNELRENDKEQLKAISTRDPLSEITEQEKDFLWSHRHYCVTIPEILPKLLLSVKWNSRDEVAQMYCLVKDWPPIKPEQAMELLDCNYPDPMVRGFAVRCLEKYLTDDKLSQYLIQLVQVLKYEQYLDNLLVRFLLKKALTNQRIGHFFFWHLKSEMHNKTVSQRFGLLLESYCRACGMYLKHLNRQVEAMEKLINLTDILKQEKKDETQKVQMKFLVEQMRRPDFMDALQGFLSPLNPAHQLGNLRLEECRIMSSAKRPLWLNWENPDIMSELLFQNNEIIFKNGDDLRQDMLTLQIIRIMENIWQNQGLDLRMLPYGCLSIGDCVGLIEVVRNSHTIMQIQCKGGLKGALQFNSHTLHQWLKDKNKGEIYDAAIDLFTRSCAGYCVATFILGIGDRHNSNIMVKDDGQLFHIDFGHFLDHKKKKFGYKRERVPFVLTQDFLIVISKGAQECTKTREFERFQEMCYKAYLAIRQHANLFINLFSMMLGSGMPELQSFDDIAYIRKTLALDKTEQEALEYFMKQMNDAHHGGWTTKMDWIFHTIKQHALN
# Sequence (P27986 whole entry partner): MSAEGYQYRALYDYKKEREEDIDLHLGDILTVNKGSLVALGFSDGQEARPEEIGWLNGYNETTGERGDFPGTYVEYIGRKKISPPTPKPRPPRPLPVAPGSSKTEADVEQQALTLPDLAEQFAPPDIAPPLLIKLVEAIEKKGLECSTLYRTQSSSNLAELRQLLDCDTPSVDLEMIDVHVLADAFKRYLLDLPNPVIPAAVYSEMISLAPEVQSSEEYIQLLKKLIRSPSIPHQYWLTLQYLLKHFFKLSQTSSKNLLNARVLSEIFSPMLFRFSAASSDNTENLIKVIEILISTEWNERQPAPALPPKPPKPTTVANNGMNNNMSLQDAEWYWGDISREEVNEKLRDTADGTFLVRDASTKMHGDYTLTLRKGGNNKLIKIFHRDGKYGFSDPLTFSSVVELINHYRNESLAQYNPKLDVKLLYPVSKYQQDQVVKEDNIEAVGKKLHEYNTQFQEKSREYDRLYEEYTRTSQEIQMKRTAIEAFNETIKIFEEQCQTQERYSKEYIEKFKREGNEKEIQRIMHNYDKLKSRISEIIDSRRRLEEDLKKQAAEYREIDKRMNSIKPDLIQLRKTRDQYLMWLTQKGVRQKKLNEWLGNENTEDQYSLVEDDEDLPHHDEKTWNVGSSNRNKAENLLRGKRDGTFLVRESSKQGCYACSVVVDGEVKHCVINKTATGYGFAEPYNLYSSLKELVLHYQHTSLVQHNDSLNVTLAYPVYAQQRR
# PROTOCOL_DETAILS: Fluorescence polarization assay for PI3K;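 also: PI3K kinase reaction on PIP2 with ATP, 30-60 min, product sensed by GST-GRP with red probe in fluorescence polarization (mP), controls without enzyme and at zero time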
# Type: biochemical
# PROTOCOL_CONDITIONS: PI3Kα; read-out: PI3Kα IC50
PROPERTY_MEASURED: IC50 (nM)

I. CC(C)(C)OC(=O)N1CCC(n2ncc3c(N4CCOCC4)nc(-c4ccc(NC(=O)Nc5cnccn5)cc4)nc32)CC1
II. O=C(Nc1ccc(-c2nc(N3CCOCC3)c3cnn(C4CCN(C(=O)OCCF)CC4)c3n2)cc1)Nc1cccnc1
Asked: From the items above, decide which of I and II has the lower IC50 reading. Field: selected label. Fill in the label of the entry you choose.
Given back: II

* * *

# STUDY_TARGET: UniProt P42336
# PROTOCOL_DETAILS: Fluorescence polarization assay for PI3K
# Format: biochemical
# PROTOCOL_CONDITIONS: PI3Kα; read-out: PI3Kα IC50
PROPERTY_MEASURED: IC50 (µM)

[
  {
    "MOLECULE": "COC(=O)N1CCC(n2ncc3c(N4CCOCC4)nc(-c4ccc(NC(=O)Nc5ccncc5F)cc4)nc32)CC1",
    "UNIT_NAME": "µM",
    "RECORDED_RESULT": 0.116
  },
  {
    "MOLECULE": "O=C(Nc1ccc(-c2nc(N3CCOCC3)c3cnn(C4CCN(Cc5cccnc5)CC4)c3n2)cc1)Nc1ccsc1 [Compound 620]",
    "UNIT_NAME": "µM",
    "RECORDED_RESULT": 0.01
  }
]

P. Oc1cncc(-c2nc(N3CCOCC3)c3cnn(C4CCN(Cc5ccccc5)CC4)c3n2)c1 [Compound 930]
Q. COc1cccc(C(=O)Nc2ccc(-c3nc(N4CCOCC4)c4cnn(C5CCCCO5)c4n3)cc2)c1 (stereo not shown) [Compound 519]
Asked: Please compare: P and Q . Report which one has the smaller IC50 value. Field: selected label. Fill in the label of the entry you choose.
Given back: P

Data origin, for the record: patent US20080234262A1
